- MEASURED_ON: T1, Astn1 P1268L (control peptide) peptide on HLA-A*02:01 (human)
- T1 peptide: KLYGLDWAEL
- TEST_NAME: cytokine release
RECORDED_METRIC: binding result

BINDER	RECORDED_METRIC	REPORTED_RESULT
TCR_1 (TCR, V domains shown) Valpha: GENVEQHPSTLSVQEGDSAVIKCTYSDSASNYFPWYKQELGKGPQLIIDIRSNVGEKKDQRIAVTLNKTAKHFSLHITETQPEDSAVYFCAASDLNFGKGTSLLVTP Vbeta: DTGVSQNPRHKITKRGQNVTFRCDPISEHNRLYWYRQTLGQGPEFLTYFQNEAQLEKSRLLSDRFSAERPKGSFSTLEIQRTEQGDSAMYLCASSLVSRVDGYTFGSGTRLTVV	binding result	no recognition
TCR_6 (TCR, V domains shown) Valpha: GEDVEQSLFLSVREGDSSVINCTYTDSSSTYLYWYKQEPGAGLQLLTYIFSNMDMKQDQRLTVLLNKKDKHLSLRIADTQTGDSAIYFCAEKWIIFGKGTRLHILP Vbeta: DTGVSQNPRHKITKRGQNVTFRCDPISEHNRLYWYRQTLGQGPEFLTYFQNEAQLEKSRLLSDRFSAERPKGSFSTLEIQRTEQGDSAMYLCASSLTTPDGYTFGSGTRLTVV	binding result	no recognition
TCR_4 (TCR, V domains shown) Valpha: GENVEQHPSTLSVQEGDSAVIKCTYSDSASNYFPWYKQELGKGPQLIIDIRSNVGEKKDQRIAVTLNKTAKHFSLHITETQPEDSAVYFCAGRGKLTFGTGTRLTIIP Vbeta: DTGVSQNPRHKITKRGQNVTFRCDPISEHNRLYWYRQTLGQGPEFLTYFQNEAQLEKSRLLSDRFSAERPKGSFSTLEIQRTEQGDSAMYLCASSLVRDEKLFFGSGTQLSVL	binding result	no recognition
